system: H3K4me3 mark; test: Western blot detection of H3K4me3 in HBV-infected PHHs; format: cell-based, human; details: Homo sapiens, read-out: IC50 (concentration causing a 50% increase in the H3K4me3 mark), Virus AD38 (GTD); PHH 8181
IC50 values, listed per item
measured.attribute: IC50

query.smiles: CCN(CCN(C)C)C(=O)CNCc1cc(C(=O)O)ccn1
reported: 130 nM
--
query.smiles: CCOC(=O)c1ccnc(CNCC(=O)N(CC)CCN(C)C)c1
reported: 50 nM
--
query.smiles: CCN(CCN(C)C)C(=O)CNCc1cc(C=O)ccn1
reported: 40 nM

---

tested on: H3K4me3 mark; test: Western blot detection of H3K4me3 in HBV-infected PHHs; assay type: cell-based, human; conditions: Homo sapiens, read-out: IC50 (concentration causing a 50% increase in the H3K4me3 mark), Virus AD38 (GTD); PHH 8130
pIC50: −log10 of the molar value.
measured.attribute: pIC50

query.smiles: CCOC(=O)c1ccnc(CNCC(=O)N(CC)CCN(C)C)c1
measured.attribute: pIC50
reported: 8.52
--
query.smiles: CCN(CCN(C)C)C(=O)CNCc1cc(C(=O)O)ccn1
measured.attribute: pIC50
reported: 6.89
--
query.smiles: CCN(CCN(C)C)C(=O)CNCc1cc(C=O)ccn1
measured.attribute: pIC50
reported: 7.30
